Test system: human acute mononuclear granulocyte leukaemia (THP-1)
Experiment: Cytotoxicity, MTT assay, THP-1
Type: cell-based
Conditions: Homo sapiens, THP-1, 24 h, MTT, 24 h
readout-name: pIC50
Give bare numbers, as −log10 of the molar value.

Examples from the recorded data:
>>> assay_result("CN1C/C(=C\\c2cccc([N+](=O)[O-])c2)C(=O)/C(=C/c2ccccc2F)C1 [Compound 83]")
5.89
>>> assay_result("CN1C/C(=C\\c2cccc(N)c2)C(=O)/C(=C/c2ccccc2F)C1 [Compound 92]")
5.92
>>> assay_result("COc1cc(/C=C/C(=O)CC(=O)/C=C/c2ccc(O)c(OC)c2)ccc1O [Curcumin, reference compound]")
4.68

Alright, here's another compound for you.
Query: # get_value(readout='pIC50', item= COc1cccc2c1C(=O)c1c(O)c3c(c(O)c1C2=O)C[C@@](O)(C(=O)CO)C[C@@H]3O[C@H]1C[C@H](N)[C@H](O)[C@H](C)O1 [DOX, Doxorubicin, reference compound] )
Reply: 5.02

====

System: human cervical carcinoma cells (HeLa)
Assay: Cytotoxicity, MTT assay, HeLa
Format: cell-based
Settings: MTT, 24 h
readout-name: IC50 (µM)
Numbers only, in µM.

>>> assay_result("CN1CC(=Cc2cccc(N=Cc3cc(O)ccc3O)c2)C(=O)C(=Cc2ccccc2F)C1 [Compound 99]")
15.3

Provide IC50 for all items below, preserving their order.
1. CN1C/C(=C\c2cccc([N+](=O)[O-])c2)C(=O)/C(=C/c2ccc(F)cc2F)C1 [Compound 84]
2. CN1CC(=Cc2cccc(N=Cc3ccc(Cl)c(Cl)c3)c2)C(=O)C(=Cc2ccccc2F)C1 [Compound 95]
3. CN1CC(=Cc2cccc(N=Cc3cc(F)ccc3O)c2)C(=O)C(=Cc2ccccc2F)C1 [Compound 93]

Reply:
[10.2, 4.3, 3]

Provide IC50 for all items below, preserving their order.
1. CN1CC(=Cc2cccc(N=Cc3ccc(Cl)cc3)c2)C(=O)C(=Cc2ccccc2F)C1 [Compound 94]
2. COc1ccccc1/C=C1\CN(C)C/C(=C\c2cc(OC)c(OC)c(OC)c2)C1=O [Compound 89]

Reply:
1. 11.1
2. 5.3

Provide IC50 for all items below, preserving their order.
1. CN1CC(=Cc2cccc(N=Cc3ccc(O)c(O)c3O)c2)C(=O)C(=Cc2ccccc2F)C1 [Compound 100]
2. CN1C/C(=C\c2cccc([N+](=O)[O-])c2)C(=O)/C(=C/c2cc(F)ccc2F)C1 [Compound 86]

Reply:
1. 11.9
2. 11.5

====

Test system: human gastric adenocarcinoma cells (SGC7901)
Assay: Cytotoxicity, MTT assay, SGC7901
Assay type: cell-based
Details: quotient of IC50 towards LO2 cells
readout-name: SGC7901 SI (selectivity index)
Answers are plain numbers.

Provide SGC7901 SI (selectivity index) for all items below, preserving their order.
1. CN1CC(=Cc2cccc(N=Cc3ccc(Cl)cc3)c2)C(=O)C(=Cc2ccccc2F)C1 [Compound 94]
2. CN1CC(=Cc2cccc(N=Cc3ccc(O)c(O)c3O)c2)C(=O)C(=Cc2ccccc2F)C1 [Compound 100]
3. CN1C/C(=C\c2cccc([N+](=O)[O-])c2)C(=O)/C(=C/c2cc(F)ccc2F)C1 [Compound 86]
4. COc1ccccc1/C=C1\CN(C)C/C(=C\c2cc(OC)c(OC)c(OC)c2)C1=O [Compound 89]
5. CN1C/C(=C\c2cccc(N)c2)C(=O)/C(=C/c2ccccc2F)C1 [Compound 92]
6. CN1C/C(=C\c2cccc([N+](=O)[O-])c2)C(=O)/C(=C/c2ccccc2F)C1 [Compound 83]
7. COc1ccc(/C=C2\CN(C)C/C(=C\c3cc(OC)c(OC)c(OC)c3)C2=O)cc1 [Compound 90]

Reply:
1. 2.8
2. 5.5
3. 1.0
4. 4.1
5. 6.8
6. 3.5
7. 2.4

====

System: human liver hepatocellular carcinoma cell line (HepG2)
Assay: Cytotoxicity, MTT assay, HepG2
Assay type: cell-based
Conditions: Homo sapiens, HepG2, 24 h, MTT, 24 h
readout-name: pIC50
Give bare numbers, as −log10 of the molar value.

Examples from the recorded data:
>>> assay_result("COc1cccc2c1C(=O)c1c(O)c3c(c(O)c1C2=O)C[C@@](O)(C(=O)CO)C[C@@H]3O[C@H]1C[C@H](N)[C@H](O)[C@H](C)O1 [DOX, Doxorubicin, reference compound]")
5.92
>>> assay_result("CN1C/C(=C\\c2cccc(N)c2)C(=O)/C(=C/c2ccccc2F)C1")
5.96
>>> assay_result("CN1C/C(=C\\c2cccc([N+](=O)[O-])c2)C(=O)/C(=C/c2ccccc2F)C1")
5.92

Query: // map COc1cc(/C=C/C(=O)CC(=O)/C=C/c2ccc(O)c(OC)c2)ccc1O [Curcumin, reference compound] to recorded pIC50 (system: human liver hepatocellular carcinoma cell line (HepG2))
Reply: 4.68

====

System: human acute mononuclear granulocyte leukaemia (THP-1)
Assay: Cytotoxicity, MTT assay, THP-1
Format: cell-based
Conditions: MTT, 24 h
Text: Compounds 83–102 were screened against human neoplastic cell lines, such as human breast cancer cells (MCF-7), human colon cancer cells (HCT116), human lung carcinoma cells (A549), human gastric adenocarcinoma cells (SGC7901), human liver hepatocellular carcinoma cell line (HepG2), human cervical carcinoma cells (HeLa), human acute mononuclear granulocyte leukaemia (THP-1), and human normal hepatic cell line (LO2) using modified MTT assay. […]
readout-name: pIC50
Give bare numbers, as −log10 of the molar value.

Examples from the recorded data:
>>> assay_result("CN1CC(=Cc2cccc(N=Cc3ccc(O)cc3O)c2)C(=O)C(=Cc2ccccc2F)C1")
5.29
>>> assay_result("CN1C/C(=C\\c2cccc([N+](=O)[O-])c2)C(=O)/C(=C/c2ccc(F)cc2F)C1")
4.93
>>> assay_result("CN1C/C(=C\\c2cccc([N+](=O)[O-])c2)C(=O)/C(=C/c2cc(F)ccc2F)C1")
5.15

Provide pIC50 for all items below, preserving their order.
1. COc1ccc(/C=C2\CN(C)C/C(=C\c3ccc(Cl)c(Cl)c3)C2=O)cc1
2. COc1ccc(/C=C2\CN(C)C/C(=C\c3cc(OC)c(OC)c(OC)c3)C2=O)cc1
3. CN1CC(=Cc2cccc(N=Cc3ccc(Cl)c(Cl)c3)c2)C(=O)C(=Cc2ccccc2F)C1

Reply:
5.14
5.30
5.42

====

System: human cervical carcinoma cells (HeLa)
Test: Cytotoxicity, MTT assay, HeLa
Type: cell-based
Conditions: MTT, 24 h
pIC50: −log10 of the molar value.
Label no (0) if pIC50 falls below 5; label yes (1) in every other case.

>>> discrete_label("CN1CC(=Cc2cccc(N=Cc3ccc(O)cc3O)c2)C(=O)C(=Cc2ccccc2F)C1")
"yes (1)"
>>> discrete_label("CN1CC(=Cc2cccc(N=Cc3cc([N+](=O)[O-])ccc3F)c2)C(=O)C(=Cc2ccccc2F)C1")
"yes (1)"
>>> discrete_label("COc1ccc(/C=C2\\CN(C)C/C(=C\\c3ccc(Cl)c(Cl)c3)C2=O)cc1")
"no (0)"
>>> discrete_label("COc1ccc(/C=C2\\CN(C)C/C(=C\\c3cc(OC)c(OC)c(OC)c3)C2=O)cc1")
"no (0)"
>>> discrete_label("COc1cc(/C=C2\\CN(C)C/C(=C\\c3ccc(F)cc3Br)C2=O)cc(OC)c1OC")
"yes (1)"

Kindly consider the entry below.
Query: I'd appreciate it if you could say whether CN1C/C(=C\c2cc(F)cc(F)c2)C(=O)/C(=C/c2cccc([N+](=O)[O-])c2)C1 has pIC50 at least equal to 5.
Reply: no (0)

====

Tested on: human gastric adenocarcinoma cells (SGC7901)
Assay: Cytotoxicity, MTT assay, SGC7901
Format: cell-based
Conditions: quotient of IC50 towards LO2 cells
readout-name: SGC7901 SI (selectivity index)
Numbers only.

Examples from the recorded data:
>>> assay_result("COc1cc(Br)c(O)c(C=Nc2cccc(C=C3CN(C)CC(=Cc4ccccc4F)C3=O)c2)c1")
2.1
>>> assay_result("CN1C/C(=C\\c2cccc([N+](=O)[O-])c2)C(=O)/C(=C/c2ccc(F)cc2F)C1")
2.5
>>> assay_result("COc1cccc2c1C(=O)c1c(O)c3c(c(O)c1C2=O)C[C@@](O)(C(=O)CO)C[C@@H]3O[C@H]1C[C@H](N)[C@H](O)[C@H](C)O1 [DOX, Doxorubicin, reference compound]")
1.4
>>> assay_result("CN1CC(=Cc2cccc(N=Cc3ccc(O)cc3O)c2)C(=O)C(=Cc2ccccc2F)C1")
1.6
>>> assay_result("CN1CC(=Cc2cccc(N=Cc3ccc(Cl)c(Cl)c3)c2)C(=O)C(=Cc2ccccc2F)C1")
3.3

Provide SGC7901 SI (selectivity index) for all items below, preserving their order.
1. CN1CC(=Cc2cccc(N=Cc3cc(O)ccc3O)c2)C(=O)C(=Cc2ccccc2F)C1
2. COc1ccc(/C=C2\CN(C)C/C(=C\c3ccc(Cl)c(Cl)c3)C2=O)cc1

Reply:
1. 3.3
2. 2.2

Provide SGC7901 SI (selectivity index) for all items below, preserving their order.
1. COc1cc(/C=C2\CN(C)C/C(=C\c3ccc(F)cc3Br)C2=O)cc(OC)c1OC
2. CN1C/C(=C\c2cccc([N+](=O)[O-])c2)C(=O)/C(=C/c2ccc(F)cc2Br)C1
3. CN1CC(=Cc2cccc(N=Cc3cc([N+](=O)[O-])ccc3F)c2)C(=O)C(=Cc2ccccc2F)C1
4. COc1cc(/C=C/C(=O)CC(=O)/C=C/c2ccc(O)c(OC)c2)ccc1O [Curcumin, reference compound]

Reply:
1. 4.1
2. 2.9
3. 3.5
4. 1.2

Provide SGC7901 SI (selectivity index) for all items below, preserving their order.
1. COc1ccc(C=Nc2cccc(C=C3CN(C)CC(=Cc4ccccc4F)C3=O)c2)c(O)c1
2. CN1CC(=Cc2cccc(N=Cc3cc(Br)ccc3O)c2)C(=O)C(=Cc2ccccc2F)C1
3. CN1C/C(=C\c2cc(F)cc(F)c2)C(=O)/C(=C/c2cccc([N+](=O)[O-])c2)C1
4. CN1CC(=Cc2cccc(N=Cc3cc(F)ccc3O)c2)C(=O)C(=Cc2ccccc2F)C1

Reply:
1. 1.3
2. 8.3
3. 0.8
4. 5.4
